Provenance of the data: paper PMC6009863

Entries annotated with measured IC50
molecular target: recombinant human LDHA protein (Homo sapiens); test: LDHA inhibition assay (Lactate Dehydrogenase Assay Kit, colorimetric); conditions: mean from three different assays, colorimetric assay measuring absorbance at 450 nm, errors ±5–10%
readout: IC50 (µM)

# molecule, reported-value
data = [
    ("NS(=O)(=O)c1ccc(NC(=O)Cn2cc(-c3cncc(-c4cn(CC(=O)Nc5ccc(S(N)(=O)=O)cc5)nn4)c3)nn2)cc1 [Compound 15a]", 136),
    ("COc1cc(-c2cn(CC(=O)NCc3ccc(S(N)(=O)=O)cc3)nn2)cc(-c2cn(CC(=O)NCc3ccc(S(N)(=O)=O)cc3)nn2)c1 [Compound 21a]", 173),
    ("NS(=O)(=O)c1ccc(CNC(=O)Cn2cc(-c3cncc(-c4cn(CC(=O)NCc5ccc(S(N)(=O)=O)cc5)nn4)c3)nn2)cc1 [Compound 16a]", 174),
]

###

pIC50 reference
biological target: recombinant human LDHA protein (Homo sapiens); construct: purchased Abcam ab93699; assay: LDHA inhibition assay (Lactate Dehydrogenase Assay Kit, colorimetric); assay type: biochemical; settings: mean from three different assays, colorimetric assay measuring absorbance at 450 nm, errors ±5–10%
pIC50: −log10 of the molar value.

# molecule, pIC50
rows = [
    ("O=C(Cn1cc(-c2cccc(-c3cn(CC(=O)Nc4ccc(C(=O)O)cc4)nn3)c2)nn1)Nc1ccc(C(=O)O)cc1", 3.92),
    ("O=C(Cn1cc(-c2cccc(-c3cn(CC(=O)Nc4ccc([N+](=O)[O-])cc4)nn3)c2)nn1)Nc1ccc([N+](=O)[O-])cc1", 3.76),
    ("O=c1oc2c(cc1O)oc(=O)c1cc(O)c(O)c(O)c12 [Galloflavin, reference compound]", 3.80),
    ("COc1cc(-c2cn(CC(=O)Nc3ccc([N+](=O)[O-])cc3)nn2)cc(-c2cn(CC(=O)Nc3ccc([N+](=O)[O-])cc3)nn2)c1 [Compound 20c]", 3.79),
]

###

molecular target: recombinant human LDHA protein (Homo sapiens, UniProt P00338); experiment: LDHA inhibition assay (Lactate Dehydrogenase Assay Kit, colorimetric); conditions: mean from three different assays, colorimetric assay measuring absorbance at 450 nm, errors ±5–10%
readout: IC50 (µM)

# molecule, reported-value
rows = [
    ("O=C(Cn1cc(-c2cncc(-c3cn(CC(=O)Nc4ccc([N+](=O)[O-])cc4)nn3)c2)nn1)Nc1ccc([N+](=O)[O-])cc1 [Compound 15c]", 156),
    ("NS(=O)(=O)c1ccc(CNC(=O)Cn2cc(-c3cccc(-c4cn(CC(=O)NCc5ccc(S(N)(=O)=O)cc5)nn4)c3)nn2)cc1 [Compound 11a]", 158),
    ("O=C(Cn1cc(-c2cccc(-c3cn(CC(=O)NCc4ccc(C(=O)O)cc4)nn3)c2)nn1)NCc1ccc(C(=O)O)cc1 [Compound 11b]", 156),
]

###

biological target: recombinant human LDHA protein (Homo sapiens, UniProt P00338); construct: purchased Abcam ab93699; assay: LDHA inhibition assay (Lactate Dehydrogenase Assay Kit, colorimetric); type: biochemical; details: mean from three different assays, colorimetric assay measuring absorbance at 450 nm, errors ±5–10%
pIC50: −log10 of the molar value.

# compound, pIC50
measured = [
    ("O=C(Cn1cc(-c2cncc(-c3cn(CC(=O)NCc4ccc(C(=O)O)cc4)nn3)c2)nn1)NCc1ccc(C(=O)O)cc1 [Compound 16b]", 3.93),
    ("COc1cc(-c2cn(CC(=O)Nc3ccc(S(N)(=O)=O)cc3)nn2)cc(-c2cn(CC(=O)Nc3ccc(S(N)(=O)=O)cc3)nn2)c1 [Compound 20a]", 3.78),
    ("COc1cc(-c2cn(CC(=O)NCc3ccc(C(=O)O)cc3)nn2)cc(-c2cn(CC(=O)NCc3ccc(C(=O)O)cc3)nn2)c1 [Compound 21b]", 3.89),
    ("O=C(Cn1cc(-c2cncc(-c3cn(CC(=O)Nc4ccc(C(=O)O)cc4)nn3)c2)nn1)Nc1ccc(C(=O)O)cc1 [Compound 15b]", 3.90),
    ("NS(=O)(=O)c1ccc(NC(=O)Cn2cc(-c3cccc(-c4cn(CC(=O)Nc5ccc(S(N)(=O)=O)cc5)nn4)c3)nn2)cc1", 3.89),
    ("COc1cc(-c2cn(CC(=O)Nc3ccc(C(=O)O)cc3)nn2)cc(-c2cn(CC(=O)Nc3ccc(C(=O)O)cc3)nn2)c1 [Compound 20b]", 3.90),
]
